Ref: paper PMC3362575

# Test system: Hep3B
# Experiment summary: MTT cytotoxicity assay, Hep3B
# Format: cell-based, human
# Recorded conditions: Homo sapiens, Hep3B, Table 1, natural phenanthrenes
Observation type: IC50 (µg/mL)

{"Molecule": "COc1cc2c(c(OC)c1OC)-c1c(O)ccc(O)c1CC2 [CA-6]", "Unit name": "µg/mL", "Inequality operator": "=", "Measured result": 11.5}
{"Molecule": "COC1=CC(=O)c2ccc3cc(OC)c(OC)c(O)c3c2C1=O [Compound 6a]", "Unit name": "µg/mL", "Inequality operator": "=", "Measured result": 0.22}
{"Molecule": "COc1cc(O)c(-c2c(O)cc(OC)c3c2CCc2cc(O)ccc2-3)c2c1-c1ccc(O)cc1CC2 [CA-11]", "Unit name": "µg/mL", "Inequality operator": "=", "Measured result": 6.28}
{"Molecule": "COc1c(O)cc2c(c1OC)-c1c(O)ccc(O)c1CC2 [CA-5]", "Unit name": "µg/mL", "Inequality operator": "=", "Measured result": 9.87}
{"Molecule": "COc1cc(O)cc2c1-c1ccc(O)cc1CC2 [CA-10]", "Unit name": "µg/mL", "Inequality operator": "=", "Measured result": 7.24}
{"Molecule": "COc1cc2c(cc1O)CCc1cc(O)cc(OC)c1-2 [CA-9]", "Unit name": "µg/mL", "Inequality operator": "=", "Measured result": 12.9}
{"Molecule": "COc1cc(O)c2c(c1)CCc1ccc(O)c(OC)c1-2 [CA-7]", "Unit name": "µg/mL", "Inequality operator": ">", "Measured result": 20}
{"Molecule": "COc1cc2c(c(OC)c1O)-c1c(O)ccc(O)c1CC2 [CA-4]", "Unit name": "µg/mL", "Inequality operator": "=", "Measured result": 11.1}
{"Molecule": "COc1cccc2c1C(=O)c1c(O)c3c(c(O)c1C2=O)C[C@@](O)(C(=O)CO)C[C@@H]3O[C@H]1C[C@H](N)[C@H](O)[C@H](C)O1 [Doxo, Doxorubicin, reference compound]", "Unit name": "µg/mL", "Inequality operator": "=", "Measured result": 0.49}
